Where do these numbers come from? They come from ChEMBL document CHEMBL5512673.

System: RAW264.7
Experiment: Upregulation of IL-1beta production in mouse RAW264.7 cells at 50 uM incubated for 24 hrs by ELISA
Format: functional, cell-based
The source made the active and inactive calls. The rule behind the calls is not given here. Bridge positions count the residues as written; N and C are the ends. Square brackets hold non-standard residues; d marks the D form. Peptide text beside a SMILES is read from it. Dab = NCC[C@H](N)C(=O)O; Dap = NC[C@H](N)C(=O)O
Result Type: Activity

CC[C@H](C)[C@@H]1NC(=O)[C@H](CCCNC(=N)N)NC(=O)[C@H](Cc2ccccc2)NC(=O)[C@H](CCCCN)NC(=O)[C@H](Cc2ccccc2)NC(=O)[C@H](CCCNC(=N)N)NC(=O)[C@@H](N)CNC(=O)CC[C@@H](C(N)=O)NC(=O)[C@H]([C@@H](C)CC)NC(=O)[C@H](C(C)C)NC1=O (H-[Dap]RFKFRIVIE-NH2; lactam 1-10) | Active
CC[C@H](C)[C@@H]1NC(=O)[C@H](CCCNC(=N)N)NC(=O)[C@H](Cc2ccccc2)NC(=O)[C@H](CCCCN)NC(=O)[C@H](Cc2ccccc2)NC(=O)[C@H](CCCNC(=N)N)NC(=O)[C@@H](N)CCC(=O)NCC[C@@H](C(N)=O)NC(=O)[C@H]([C@@H](C)CC)NC(=O)[C@H](C(C)C)NC1=O (H-ERFKFRIVI[Dab]-NH2; lactam 1-10) | Active

###

Assay: Aggregation property of compound in aqueous solution assessed as critical micelle concentration by dynamic light scattering analysis
Type: physicochemical
Conditions: buffer
Bridge positions count the residues as written; N and C are the ends. Square brackets hold non-standard residues; d marks the D form. Peptide text beside a SMILES is read from it. Dap = NC[C@H](N)C(=O)O
Could you please report measured CMC for the items listed next?
Give bare numbers, in µM.

Known CMC results, listed for orientation:
CC[C@H](C)[C@@H]1NC(=O)[C@H](CCCNC(=N)N)NC(=O)[C@H](Cc2ccccc2)NC(=O)[C@H](CCCCN)NC(=O)[C@H](Cc2ccccc2)NC(=O)[C@H](CCCNC(=N)N)NC(=O)[C@@H](N)CNC(=O)CC[C@@H](C(N)=O)NC(=O)[C@H]([C@@H](C)CC)NC(=O)[C@H](C(C)C)NC1=O (H-[Dap]RFKFRIVIE-NH2; lactam 1-10) | 2.3
CC[C@H](C)[C@@H]1NC(=O)[C@H](CCCNC(=N)N)NC(=O)[C@H](Cc2ccccc2)NC(=O)[C@H](CCCCN)NC(=O)[C@H](Cc2ccccc2)NC(=O)[C@H](CCCNC(=N)N)NC(=O)[C@@H](N)CCC(=O)NC[C@@H](C(N)=O)NC(=O)[C@H]([C@@H](C)CC)NC(=O)[C@H](C(C)C)NC1=O (H-ERFKFRIVI[Dap]-NH2; lactam 1-10) | 10.8

Now look at this entry.
Quick note, CMC for CC[C@H](C)[C@@H]1NC(=O)[C@H](CCCNC(=N)N)NC(=O)[C@H](Cc2ccccc2)NC(=O)[C@H](CCCCN)NC(=O)[C@H](Cc2ccccc2)NC(=O)[C@H](CCCNC(=N)N)NC(=O)[C@@H](N)CSSC[C@@H](C(N)=O)NC(=O)[C@H]([C@@H](C)CC)NC(=O)[C@H](C(C)C)NC1=O (H-CRFKFRIVIC-NH2; disulfide 1-10) landed at 4.5
